src = paper PMC8741257

Below, each entry is listed with its recorded log10 IC50.
Test system: U937 (human leukaemia cells)
Protocol notes: Antiproliferative activity (CCK-8 assay)
Assay type: cell-based
Experimental setup: U-937, mean ± SD, three separated experiments, 72 h
Values reflect log10 of reported IC50 (nM).

Problem: Query (compound): COc1cc(C(=O)/C(F)=C/c2ccc3c(c2)CCO3)cc(OC)c1OC [4n] ; field requested: log10 IC50
Solution: 1.49

Problem: Query (compound): COc1cc(C(=O)/C(F)=C/c2c(C)[nH]c3ccccc23)cc(OC)c1OC [4e] ; field requested: log10 IC50
Solution: 2.09

Problem: Query (compound): COc1cc(C(=O)/C(F)=C/c2coc3ccccc23)cc(OC)c1OC [4t] ; field requested: log10 IC50
Solution: 2.10

Problem: Query (compound): COc1cc(C(=O)/C(F)=C/c2csc3ccccc23)cc(OC)c1OC [4g] ; field requested: log10 IC50
Solution: 2.66

Problem: Query (compound): COc1cc(C(=O)/C(F)=C/c2cccc3c2OCO3)cc(OC)c1OC [4k] ; field requested: log10 IC50
Solution: 2.91
